B1: library; a variant is named by its letters at N, in order (parent)
chain: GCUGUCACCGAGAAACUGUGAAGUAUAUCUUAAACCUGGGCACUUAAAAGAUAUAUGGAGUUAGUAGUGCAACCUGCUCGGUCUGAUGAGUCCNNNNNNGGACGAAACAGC

Variants of: B1
Test: normalized RNA/DNA level with ligand (relative to sTRSVctl = 100) (log10 (% of sTRSVctl)); HEK293T; ligand: cyclic di-GMP (c-di-GMP-II aptamer); ligand concentration (+) RNA-Seq: 1 mM; higher = less ribozyme self-cleavage, higher mRNA level
Details: reporter: mCherry (pCS4076), ligand present: yes
metric name: normalized RNA/DNA level with ligand (log10)

>>> result("UGUGUA")
1.74
>>> result("CAUGCU")
1.84
>>> result("GAGGGC")
1.82
>>> result("GCCUUU")
1.88
>>> result("CUUCAU")
1.75
>>> result("UCUGAG")
1.78
>>> result("CGCGUA")
1.64
>>> result("CUUACC")
1.86
>>> result("CGCAUU")
1.61
>>> result("ACACUC")
1.77
>>> result("CAUGUA")
1.65
>>> result("GGUAUC")
1.79
>>> result("GGCAGC")
1.82
>>> result("AGACGG")
1.78
>>> result("AGUAUG")
1.75
>>> result("ACACCA")
1.76
>>> result("UCAGUU")
1.74
>>> result("UCCUGC")
1.91
>>> result("UAGCGU")
1.72
>>> result("GUCCGG")
1.96
>>> result("AACGCG")
1.82
>>> result("CGGGCA")
1.9
>>> result("CUCGCU")
1.9
>>> result("GAUGUC")
1.87
>>> result("GACAUG")
1.75
>>> result("AUAUCU")
1.86
>>> result("GUUUAC")
1.84
>>> result("GUAGAA")
1.63
>>> result("CGCGGG")
1.87
>>> result("AAGCCG")
1.82
>>> result("AUGCUG")
1.83
>>> result("AACCCC")
1.89
>>> result("UAUUUU")
1.84
>>> result("CCCAUC")
1.84
>>> result("CCGGAG")
1.52
>>> result("GCAAGA")
1.54
>>> result("AUAUCA")
1.79
>>> result("CGAGUU")
1.84
>>> result("AAUUCU")
1.9
>>> result("GCACUG")
1.75
>>> result("CGUCCC")
1.9
>>> result("AAGUUG")
1.75
>>> result("UAUCUC")
1.9
>>> result("ACCCGC")
1.85
>>> result("AUGCCA")
1.84
>>> result("CAGAUG")
1.75
